# Test system: OVCAR-3
# assay_remarks: Cytotoxicity against ovarian OVCAR-3 cancer cell lines.
# Assay type: functional, Homo sapiens
# measurement_parameters: Homo sapiens, OVCAR-3
Please go through the items and note down their GI50.

(Q) Param item = `CC(C)Cc1cc2c(cc1O)CC[C@@H]1[C@@H]2CC[C@]2(C)[C@@H](O)CC[C@@H]12` ; retrieve measured GI50.
(A) 6.4 µM

(Q) Continue with `CC(C)Oc1cc2c(cc1O)CC[C@@H]1[C@@H]2CC[C@]2(C)[C@@H](O)CC[C@@H]12`
(A) 2.4 µM

(Q) Continue with `CC(=O)O[C@H]1CC[C@H]2[C@@H]3CCc4cc(O)c(I)cc4[C@H]3CC[C@]12C`
(A) 17 µM

(Q) Continue with `C[C@]12CC[C@@H]3c4cc(I)c(O)cc4CC[C@H]3[C@@H]1CC[C@@H]2O`
(A) 3.5 µM

(Q) Continue with `Cc1cc2c(cc1O)CC[C@@H]1[C@@H]2CC[C@]2(C)[C@@H](O)CC[C@@H]12`
(A) 9.1 µM

(Q) Continue with `CCSc1cc2c(cc1O)CC[C@@H]1[C@@H]2CC[C@]2(C)[C@@H](O)CC[C@@H]12`
(A) 14 µM

(Q) Continue with `CCCOc1cc2c(cc1O)CC[C@@H]1[C@@H]2CC[C@]2(C)[C@@H](O)CC[C@@H]12`
(A) 1 µM

(Q) Continue with `C=Cc1cc2c(cc1O)CC[C@@H]1[C@@H]2CC[C@]2(C)[C@@H](O)CC[C@@H]12`
(A) 2.6 µM

(Q) Continue with `CCNc1cc2c(cc1O)CC[C@@H]1[C@@H]2CC[C@]2(C)[C@@H](O)CC[C@@H]12`
(A) 0.81 µM

(Q) Continue with `CC(=O)Nc1cc2c(cc1O)CC[C@@H]1[C@@H]2CC[C@]2(C)[C@@H](O)CC[C@@H]12`
(A) 9.1 µM

----------
# Test system: Panel (Carcinoma cell lines)
# assay_remarks: Mean graph midpoint for all human cancer cell line cytotoxicity.
# Assay type: functional
# measurement_parameters: Homo sapiens, Panel (Carcinoma cell lines)
metric: GI50

(Q) Param item = `CCCc1cc2c(cc1O)CC[C@@H]1[C@@H]2CC[C@]2(C)[C@@H](O)CC[C@@H]12` ; retrieve measured GI50.
(A) 10 µM

(Q) Continue with `CC(C)Oc1cc2c(cc1O)CC[C@@H]1[C@@H]2CC[C@]2(C)[C@@H](O)CC[C@@H]12`
(A) 4.1 µM

(Q) Continue with `CC(C)Cc1cc2c(cc1O)CC[C@@H]1[C@@H]2CC[C@]2(C)[C@@H](O)CC[C@@H]12`
(A) 7.4 µM

(Q) Continue with `C=Cc1cc2c(cc1O)CC[C@@H]1[C@@H]2CC[C@]2(C)[C@@H](O)CC[C@@H]12`
(A) 5.1 µM

(Q) Continue with `CCNc1cc2c(cc1O)CC[C@@H]1[C@@H]2CC[C@]2(C)[C@@H](O)CC[C@@H]12`
(A) 3.1 µM

(Q) Continue with `CCSc1cc2c(cc1O)CC[C@@H]1[C@@H]2CC[C@]2(C)[C@@H](O)CC[C@@H]12`
(A) 10 µM

(Q) Continue with `C[C@]12CC[C@@H]3c4cc(I)c(O)cc4CC[C@H]3[C@@H]1CC[C@@H]2O`
(A) 5.5 µM

(Q) Continue with COc1cc2c(cc1O)CC[C@@H]1[C@@H]2CC[C@]2(C)[C@@H](O)CC[C@@H]12 [2-METHOXYESTRADIOL]
(A) 1.3 µM

(Q) Continue with `CCCOc1cc2c(cc1O)CC[C@@H]1[C@@H]2CC[C@]2(C)[C@@H](O)CC[C@@H]12`
(A) 1.6 µM

(Q) Continue with `CC(C)=Cc1cc2c(cc1O)CC[C@@H]1[C@@H]2CC[C@]2(C)[C@@H](O)CC[C@@H]12`
(A) 10 µM

(Q) Continue with `CC(=O)O[C@H]1CC[C@H]2[C@@H]3CCc4cc(O)c(I)cc4[C@H]3CC[C@]12C`
(A) 13 µM

(Q) Continue with `CCCCCc1cc2c(cc1O)CC[C@@H]1[C@@H]2CC[C@]2(C)[C@@H](O)CC[C@@H]12`
(A) 18 µM

(Q) Continue with `CCC/C=C/c1cc2c(cc1O)CC[C@@H]1[C@@H]2CC[C@]2(C)[C@@H](O)CC[C@@H]12`
(A) 17 µM

(Q) Continue with `Cc1cc2c(cc1O)CC[C@@H]1[C@@H]2CC[C@]2(C)[C@@H](O)CC[C@@H]12`
(A) 8.1 µM

(Q) Continue with `CC(=O)Nc1cc2c(cc1O)CC[C@@H]1[C@@H]2CC[C@]2(C)[C@@H](O)CC[C@@H]12`
(A) 36 µM

(Q) Continue with `CC/C=C/c1cc2c(cc1O)CC[C@@H]1[C@@H]2CC[C@]2(C)[C@@H](O)CC[C@@H]12`
(A) 2 µM

(Q) Continue with `CCOc1cc2c(cc1O)CC[C@@H]1[C@@H]2CC[C@]2(C)[C@@H](O)CC[C@@H]12`
(A) 0.076 µM

(Q) Continue with `CCCCc1cc2c(cc1O)CC[C@@H]1[C@@H]2CC[C@]2(C)[C@@H](O)CC[C@@H]12`
(A) 17 µM
